- target-desc: human GPR40 (Homo sapiens, UniProt O14842)
- Sequence (O14842 whole entry): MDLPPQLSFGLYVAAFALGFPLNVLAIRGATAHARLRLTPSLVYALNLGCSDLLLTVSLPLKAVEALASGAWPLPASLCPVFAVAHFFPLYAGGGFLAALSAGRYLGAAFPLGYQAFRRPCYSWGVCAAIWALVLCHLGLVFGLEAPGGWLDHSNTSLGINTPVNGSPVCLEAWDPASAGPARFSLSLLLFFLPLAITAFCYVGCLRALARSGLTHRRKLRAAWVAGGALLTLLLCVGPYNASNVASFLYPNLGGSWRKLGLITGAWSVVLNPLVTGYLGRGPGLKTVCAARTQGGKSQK
- method-notes: Determination of EC50 for human GPR40: intracellular calcium change by FLIPR in CHO cells stably expressing human GPR40
- details: CHO cell line stably expressing human GPR40, changes in intracellular calcium concentration, Fluo3-AM, read-out: EC50 (Receptor Function Modulating Action On GPR40)
Structures can show the parent of a compound that is named as a salt.
quantity-kind: EC50

>>> print(df.to_string())
                                   compound  data_value
0  CCOCCOc1ccc(-c2cc(CNc3ccc(CCC(=O)O)cc3)ccc2OC(C)C)cc1    < 0.1 µM
1  Cc1cc(OS(C)(=O)=O)cc(C)c1-c1cccc(CNc2ccc(CCC(=O)O)c(F)c2)c1    < 0.1 µM
2  Cc1cccc(C)c1-c1cccc2c1CCC2Nc1ccc(CCC(=O)O)c(F)c1 (centres unmarked)    < 0.1 µM

Task item: EC50 for O=C(O)CCc1ccc(NCc2ccc(Cn3nc(-c4ccccc4)cc3-c3ccccc3)cc2)cc1 ?
Reply: < 0.1 µM

Task item: What EC50 value was documented for this compound, COc1cccc(Oc2cc(C)c(-c3cccc(CNc4ccc(CCC(=O)O)c(F)c4)c3)c(C)c2)n1 [Example 164, dihydrochloride] ?
Reply: < 0.1 µM

Task item: Report EC50 for Cc1cc(OCC2(O)CCS(=O)(=O)CC2)cc(C)c1-c1cccc(CNc2ccc(CCC(=O)O)c(F)c2)c1 please.
Reply: < 0.1 µM
